target: SRC (Homo sapiens, UniProt P12931); test: Inhibition of a panel of kinases, in vitro HotSpot kinase assay: SRC; assay type: biochemical; settings: D-compounds panel data; 1 μM ATP
Sequence (P12931 whole entry): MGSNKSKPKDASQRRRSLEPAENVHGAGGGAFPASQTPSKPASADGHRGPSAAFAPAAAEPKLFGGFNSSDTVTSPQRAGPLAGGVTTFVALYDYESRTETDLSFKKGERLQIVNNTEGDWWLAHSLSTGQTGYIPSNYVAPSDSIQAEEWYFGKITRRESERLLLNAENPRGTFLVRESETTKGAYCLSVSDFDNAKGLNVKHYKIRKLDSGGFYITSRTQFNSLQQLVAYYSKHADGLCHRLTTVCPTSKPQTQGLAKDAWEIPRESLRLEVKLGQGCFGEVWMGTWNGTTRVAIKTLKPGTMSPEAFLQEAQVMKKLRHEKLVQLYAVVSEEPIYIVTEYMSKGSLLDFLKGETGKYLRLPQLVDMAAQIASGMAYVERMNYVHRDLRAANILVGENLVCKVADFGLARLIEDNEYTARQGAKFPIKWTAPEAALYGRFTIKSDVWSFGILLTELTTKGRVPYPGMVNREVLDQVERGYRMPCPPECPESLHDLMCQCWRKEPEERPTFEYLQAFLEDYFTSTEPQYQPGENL
Measured Metric: IC50

Compound	IC50
CN1CCN(C(=O)c2ccc(Nc3nc(N[C@H]4CC[C@@H](NC(=O)c5ccc(C6CC6)cc5F)CC4)cnc3C(N)=O)cc2)CC1 [Example D-71]	100 to 1000 nM
CCOCCOc1ccc(Nc2nc(N3CCC[C@@H](NC(=O)c4ccc(C5CC5)cc4)[C@H]3C)cnc2C(N)=O)cc1 [Example D-299]	1000 to 10000 nM
C[C@@H]1[C@H](NC(=O)c2ccc(C3CC3)cc2)CCCN1c1cnc(C(N)=O)c(NCC2=CCN(C)CC2)n1 [Example D-300]	> 10000 nM
C[C@@H]1[C@H](NC(=O)c2ccc(C3CC3)cc2)CCCN1c1cnc(C(N)=O)c(Nc2cnn(C3CCC(F)(F)CC3)c2)n1 [Example D-307]	100 to 1000 nM
C[C@@H]1[C@H](NC(=O)c2ccc(C(C)(O)CO)cc2)CCCN1c1cnc(C(N)=O)c(Nc2cnn(C)c2)n1 (single isomer, unassigned) [Example D-256]	10 to 100 nM
C[C@H]1CC[C@@H](NC(=O)c2ccc(C3CC3)cc2)CN1c1cnc(C(N)=O)c(Nc2ccc(N3CCN(C)CC3)cc2)n1 [Example D-154]	100 to 1000 nM
CN(C)C(=O)N1CC[C@@H]2[C@H]1CCCN2c1cnc(C(N)=O)c(Nc2cnn(C)c2)n1 (racemic) [Example D-50]	100 to 1000 nM
C[C@@H]1[C@H](NC(=O)c2ccc(C3CC3)cc2F)CCCN1c1cnc(C(N)=O)c(Nc2ccc(N3CCOCC3)cc2)n1 [Example D-73]	100 to 1000 nM

Report IC50 for Cc1cc(Nc2nc(N3C[C@H](NC(=O)c4ccc(C5CC5)cc4F)CC[C@H]3C)cnc2C(N)=O)sn1 [Example D-79] 1000 to 10000 nM

---

target: SRC (Homo sapiens, UniProt P12931); test: Inhibition of a panel of kinases, in vitro HotSpot kinase assay: SRC; assay type: biochemical; details: D-compounds panel data; 1 μM ATP
Measured Metric: IC50

Check out these entries, answers already filled in.
Smiles Notation	Result
C[C@@H]1[C@H](NC(=O)c2ccc(C(C)(C)C)cn2)CCCN1c1cnc(C(N)=O)c(Nc2cnn(C)c2)n1	10 to 100 nM
CC(C)n1nnc2cc(C(=O)N[C@@H]3CCCN(c4cnc(C(N)=O)c(Nc5cnn(C)c5)n4)[C@@H]3C)ccc21	10 to 100 nM
C[C@@H]1[C@H](NC(=O)c2ccc(N(C)C)cc2)CCCN1c1cnc(C(N)=O)c(Nc2ccc(N3CCN(C)CC3)cc2)n1	10 to 100 nM
C[C@@H]1[C@H](NC(=O)c2cc3c(n2C)CC(C)(C)C3)CCCN1c1cnc(C(N)=O)c(Nc2cnn(C)c2)n1	100 to 1000 nM
C[C@@H]1[C@H](NC(=O)c2ccc(C(C)(C)O)cc2F)CCCN1c1cnc(C(N)=O)c(Nc2cnn(C)c2)n1	10 to 100 nM

Report IC50 for C[C@@H]1[C@H](NC(=O)c2ccc(OC(F)(F)F)cc2)CCCN1c1cnc(C(N)=O)c(Nc2cnn(C)c2)n1 100 to 1000 nM

Report IC50 for C[C@@H]1[C@H](NC(=O)N(C)C)CCCN1c1cnc(C(N)=O)c(Nc2ccc(N3CCC(F)(F)CC3)cc2)n1 100 to 1000 nM

---

Molecular target: ITK (Homo sapiens, UniProt Q08881)
Sequence (Q08881 1-620): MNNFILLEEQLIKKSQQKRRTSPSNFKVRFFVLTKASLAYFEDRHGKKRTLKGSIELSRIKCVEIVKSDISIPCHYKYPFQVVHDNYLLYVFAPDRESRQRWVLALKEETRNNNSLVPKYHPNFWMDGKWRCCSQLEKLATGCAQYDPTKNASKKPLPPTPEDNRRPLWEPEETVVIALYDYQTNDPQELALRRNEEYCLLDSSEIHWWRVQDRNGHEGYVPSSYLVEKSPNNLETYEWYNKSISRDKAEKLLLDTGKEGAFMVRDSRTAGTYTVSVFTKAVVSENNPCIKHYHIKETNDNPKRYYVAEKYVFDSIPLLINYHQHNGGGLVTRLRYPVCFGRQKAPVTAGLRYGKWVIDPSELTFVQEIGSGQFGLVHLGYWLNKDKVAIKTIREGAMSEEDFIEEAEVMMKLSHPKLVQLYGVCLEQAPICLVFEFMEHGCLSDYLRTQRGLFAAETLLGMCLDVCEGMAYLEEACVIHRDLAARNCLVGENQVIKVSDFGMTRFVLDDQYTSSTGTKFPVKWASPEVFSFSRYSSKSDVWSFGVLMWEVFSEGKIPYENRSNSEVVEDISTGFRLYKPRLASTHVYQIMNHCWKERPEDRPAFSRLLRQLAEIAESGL
Test: Inhibition of a panel of kinases, in vitro HotSpot kinase assay: ITK
Format: biochemical
Details: D-compounds panel data; 1 μM ATP
pIC50: −log10 of the molar value.
Measured Metric: pIC50

Check out these entries, answers already filled in.
Molecule	pIC50
C[C@@H]1[C@H](NC(=O)c2ccc(C3CC3)cc2)CCCN1c1cnc(C(N)=O)c(Nc2ccc(N3CCN(CC(F)(F)F)CC3)cc2)n1	5.00 to 6.00
C[C@@H]1[C@H](NC(=O)c2cc(C(C)(C)C)n[nH]2)CCCN1c1cnc(C(N)=O)c(Nc2cnn(C)c2)n1	6.00 to 7.00
C[C@@H]1[C@H](NC(=O)c2ccc(C(C)(C)C)cc2)CCCN1c1cnc(C(N)=O)c(Nc2ccc(N3CCN(C)CC3)cc2)n1	6.00 to 7.00
Cn1cc(Nc2nc(N3CCC[C@@H](NC(=O)c4ccc(C5CC5)cc4)C3)nnc2C(N)=O)cn1	6.00 to 7.00
CN(C)c1ccc2c(=O)n([C@@H]3CCCN(c4cnc(C(N)=O)c(Nc5cnn(C)c5)n4)C3)ccc2c1	6.00 to 7.00

Report pIC50 for C[C@@H]1[C@H](NC(=O)c2ccc(C3CC3)cc2F)CCCN1c1cnc(C(N)=O)c(Nc2ccc(C3(C)CCN(C4CCC4)CC3)cc2)n1 7.00 to 8.00

Report pIC50 for CN(C)c1ccc2c(c1)CCN([C@@H]1CCCN(c3cnc(C(N)=O)c(Nc4cnn(C)c4)n3)C1)C2=O 6.00 to 7.00

Report pIC50 for C[C@@H]1[C@H](NC(=O)c2ccc(C3COC3)cc2)CCCN1c1cnc(C(N)=O)c(Nc2cnn(C)c2)n1 6.00 to 7.00

Report pIC50 for CN1CCN(C(=O)c2ccc(Nc3nc(N[C@H]4CC[C@H](NC(=O)c5ccc(C6CC6)cc5F)CC4)cnc3C(N)=O)cc2)CC1 6.00 to 7.00

Report pIC50 for C[C@@H]1[C@H](NC(=O)c2ccc(C3(C)COC3)cc2)CCCN1c1cnc(C(N)=O)c(Nc2cnn(C)c2)n1 6.00 to 7.00

---

target: SRC (Homo sapiens); test: Inhibition of a panel of kinases, in vitro HotSpot kinase assay: SRC; type: biochemical; conditions: Table 13, A compounds; 1 μM ATP
pIC50: −log10 of the molar value.
Measured Metric: pIC50

Check out these entries, answers already filled in.
Smiles Notation	Result
C[C@@H]1[C@H](NC(=O)c2ccc(C3CC3)cc2F)CCCN1c1cnc(C(N)=O)c(Nc2ccc(N3CCN(C)CC3)nc2)n1	6.00 to 7.00
C[C@@H]1[C@H](NC(=O)c2ccc(C3CC3)cc2F)CCCN1c1cnc(C(N)=O)c(Nc2ccc(C3(C)CCN(C4CCCC4)CC3)cc2)n1	≥ 8.00

Let us move to another entry and its pIC50.
Report pIC50 for Cc1c(Nc2nc(N3CCC[C@@H](NC(=O)c4ccc(C5CC5)cc4)[C@H]3C)cnc2C(N)=O)cnn1C 5.00 to 6.00

---

pIC50: recorded values
molecular target: LCK (Homo sapiens, UniProt P06239); test: Inhibition of a panel of kinases, in vitro HotSpot kinase assay: LCK; format: biochemical; details: D-compounds panel data; 1 μM ATP; read-out: IC50 LCK
Sequence (P06239 whole entry): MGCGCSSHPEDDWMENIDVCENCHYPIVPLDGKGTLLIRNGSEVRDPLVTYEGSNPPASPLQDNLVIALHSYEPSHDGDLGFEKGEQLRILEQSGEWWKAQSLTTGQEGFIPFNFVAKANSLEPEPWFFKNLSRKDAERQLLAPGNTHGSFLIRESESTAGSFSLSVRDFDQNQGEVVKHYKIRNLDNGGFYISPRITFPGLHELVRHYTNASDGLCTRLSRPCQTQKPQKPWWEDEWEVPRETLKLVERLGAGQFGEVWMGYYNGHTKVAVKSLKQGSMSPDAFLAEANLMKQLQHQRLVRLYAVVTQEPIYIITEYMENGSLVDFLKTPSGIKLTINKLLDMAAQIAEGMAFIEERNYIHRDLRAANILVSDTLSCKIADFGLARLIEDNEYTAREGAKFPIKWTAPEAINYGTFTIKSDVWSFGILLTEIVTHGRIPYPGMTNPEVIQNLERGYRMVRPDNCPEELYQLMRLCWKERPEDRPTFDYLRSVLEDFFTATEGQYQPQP
pIC50: −log10 of the molar value.

Check out these entries, answers already filled in.
Smiles Notation	Measured Metric	Result
CC(=O)N1CCC(n2cc(Nc3nc(N4CCC[C@@H](NC(=O)c5ccc(C6CC6)cc5)[C@H]4C)cnc3C(N)=O)cn2)CC1	pIC50	7.00 to 8.00
C[C@@H]1[C@H](NC(=O)c2ccc(N(C)C)cc2)CCCN1c1cnc(C(N)=O)c(Nc2ccc(N3CCN(C)CC3)cc2)n1	pIC50	7.00 to 8.00
C[C@@H]1[C@H](NC(=O)c2ccc(C3CC3)cc2)CCCN1c1cnc(C(N)=O)c(Nc2cnn(C)c2C(F)(F)F)n1	pIC50	< 5.00
Cc1ccc(-c2cnc([C@@H]3CCCN(c4cnc(C(N)=O)c(Nc5cc(C)ns5)n4)C3)[nH]2)cc1	pIC50	5.00 to 6.00

Using LCK (Homo sapiens, UniProt P06239) as the test system, report measured pIC50 of C[C@@H]1[C@H](NC(=O)c2ccc(C(C)(C)N)cc2)CCCN1c1cnc(C(N)=O)c(Nc2cnn(C)c2)n1 . 7.00 to 8.00

Using LCK (Homo sapiens, UniProt P06239) as the test system, report measured pIC50 of CN1CCN(C(=O)c2ccc(Nc3nc(N4CCC[C@@H](n5ccc6cc(C7CC7)ccc6c5=O)C4)cnc3C(N)=O)cc2)CC1 . 6.00 to 7.00

Data origin: patent US20210070748A1
